- RUN_DESCRIPTION: in vitro
- Design: species or system HB2, HEK293
- RUN_PARAMETERS: human, ccd841 cells
Please respond with reported viability at 48 h, 10 µM for every item in the list.
Give bare numbers, in %.

A selection of reference data follows.
O=C(CCl)Nc1ccc(Cl)c(Cl)c1
26
C=CC(=O)NC(C)C(=O)N1CCc2ccccc21 (centres unmarked)
89.6
C=CC(=O)Nc1ccccc1C(=O)OC
81

For every item below, please supply its viability at 48 h, 10 µM.
1. CC(NC(=O)CCl)c1cc2ccccc2o1 (centres unmarked)
2. Cl.O=C(CCl)N1CCN(c2cccc(C(F)(F)F)c2)CC1

1: 70.7; 2: 28.2

###

- RUN_DESCRIPTION: in vitro
- Design: species or system HB2, HEK293
- RUN_PARAMETERS: human, ccd841 cells
Please respond with reported viability at 48 h, 10 µM for every item in the list.
Numbers only, in %.

For every item below, please supply its viability at 48 h, 10 µM.
1. CN(C(=O)CCl)C1(c2ccccc2Cl)CCCCC1=O (centres unmarked)
2. O=C(CCl)NNC(=O)c1ccco1
3. C=CC(=O)NC1CCCn2nc(C)nc21 (centres unmarked)
4. O=C(CCl)NCc1ccc(F)cc1C(F)(F)F
5. C=CC(=O)N(C)C1CCCc2nc(CC)sc21 (centres unmarked)

[104, 89.7, 116, 79.1, 103]

###

- RUN_DESCRIPTION: in vitro
- Parameters: species or system HB2, CCD841
- RUN_PARAMETERS: human, hek293 cells
Response field class: enum, chosen by comparing viability at 48 h, 10 µM against category 1: < 60%; category 2: ≥ 60% and < 90%; category 3: ≥ 90%

Solved cases below.
CC(C)(C)NC(=O)NC(=O)CCl
category 3
Cc1ccc(NC(=O)CCl)cc1I
category 1
O=C(CCl)Nc1cccc(Cl)c1
category 1
CC(NC(=O)CCl)c1ccc(Br)cc1 (stereo not shown)
category 1

Now, please, on to the next compound.
Please let me know in which category the item C=CC(=O)N1CCCC(c2ncc(C(F)(F)F)[nH]2)C1 (stereo not shown) belongs.
category 3

###

- RUN_DESCRIPTION: in vitro
- Parameters: species or system HB2, HEK293
- RUN_PARAMETERS: human, ccd841 cells
Threshold check on viability at 48 h, 10 µM: strictly below 60% is y; on or above 60% is n.

Solved cases below.
CC(C)N1CCC(NC(=O)CCl)CC1.Cl
n
O=C(CCl)N1CCN(c2ccccc2Cl)CC1
y
O=C(CCl)N1CCCc2cc(S(=O)(=O)N3CCCC3)ccc21
y
O=C(CCl)NNC(=O)c1ccc([N+](=O)[O-])cc1
n

Hello, is viability at 48 h, 10 µM of the following molecule strictly smaller than 60%? O=C(CCl)Nc1cccc(I)c1
y

For COc1ccc(NC(=O)NC(=O)CCl)cc1 then?
n

###

- SYSTEM_NAME: NUDT7 (Homo sapiens, UniProt P0C024)
- Construct: residues 14-235, E. coli, pNIC28-Bsa4, N-terminal His6 tag removed by TEV, construct 26672 Da
- Sequence (P0C024 14-235): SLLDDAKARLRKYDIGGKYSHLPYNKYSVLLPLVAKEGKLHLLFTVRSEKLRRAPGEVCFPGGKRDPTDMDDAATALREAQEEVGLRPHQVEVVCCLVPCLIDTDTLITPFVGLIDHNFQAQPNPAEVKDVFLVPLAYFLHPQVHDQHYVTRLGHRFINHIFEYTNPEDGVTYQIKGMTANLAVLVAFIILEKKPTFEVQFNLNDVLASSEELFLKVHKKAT
- Set-up: Intact protein LC/MS covalent labelling, fragments in pools of five, 200 uM each, 4 °C
- RUN_PARAMETERS: 24 h, 4 °C, pool of five; 200 µM; covalent
Please respond with reported NUDT7 for every item in the list.
Numbers only.

A selection of reference data follows.
C=CC(=O)Nc1ccc2c(c1)NC(=O)CO2
0.1
O=C(CCl)NC(=O)c1cccc2ccccc12
0

For every item below, please supply its NUDT7.
1. C=CC(=O)Nc1ccccc1C
2. Cc1ccc(CNC(=O)CCl)s1
3. O=C(CCl)NCC1CCS(=O)(=O)C1 (stereo not drawn)
4. O=C(CCl)Nc1oncc1-c1ccccc1
5. C=CC(=O)N1CC2CC3CC2C1C3OC (stereo not drawn)
6. Cc1ccsc1CNC(=O)CCl
7. CC(=O)Nc1cccc(NC(=O)CCl)c1

1. 0
2. 0.11
3. 0
4. 0
5. 0
6. 0
7. 0

For every item below, please supply its NUDT7.
1. Cc1cccc(CNC(=O)CCl)c1
2. COc1cc(=O)[nH]c(NC(=O)CCl)n1
3. N#CC1(NC(=O)CCl)CCCCC1

0
0
0.08

For every item below, please supply its NUDT7.
1. C=CC(=O)NC(c1cnn(C)c1)C(F)(F)F (stereo not drawn)
2. Cc1ccc(CNC(=O)CCl)cc1
3. CS(=O)(=O)c1cccc(NC(=O)CCl)c1
4. CNC(=O)C1CN(C(=O)CCl)c2ccccc2O1 (stereo not drawn)
5. O=C(CCl)Nc1ccc(N2CCOCC2)cc1
6. CC1CCN(C(=O)CCl)CC1
7. COc1ccc(NC(=O)CCl)cn1
8. C=CC(=O)N1CCCC(c2nncn2C2CC2)C1 (stereo not drawn)

1. 0
2. 0
3. 0
4. 0
5. 0
6. 0
7. 0
8. 0
